The reported measurements were obtained from paper PMC5011932.

Test: Plasma pharmacokinetics by HPLC-ECD after IV dose in rhesus monkeys
Details: rhesus monkey, plasma, intravenous, 8 mg kg^-1, Plasma concentration, mean, 1.0 h; healthy rhesus
reported-metric: concentration at 1 h
Please answer using a numeric value trailed by its unit.

So, C[C@H]1[C@@H](O)O[C@@H]2O[C@@]3(C)CC[C@H]4[C@H](C)CC[C@@H]1[C@@]24OO3 [DHA, dihydroartemisinin] ? Its concentration at 1 h was 3.52 µM

----------
Test: in vivo
Settings: rhesus monkey, iv, 8 mg/kg, AUC(0-inf)
reported-metric: AUC(0-inf) (µM·h)
Kindly provide the numeric value in µM·h only, without the unit symbol.

The reported AUC(0-inf) of the compound C[C@H]1[C@H](OC(=O)CCC(=O)O)O[C@@H]2O[C@@]3(C)CC[C@H]4[C@H](C)CC[C@@H]1[C@@]24OO3 [IV AS, Artesunic acid] was 5.2

----------
Test: Plasma pharmacokinetics by HPLC-ECD after IV dose in rhesus monkeys
Details: rhesus monkey, plasma, intravenous, 8 mg kg^-1, Plasma concentration, mean, 3.0 h; infected rhesus
reported-metric: concentration at 3 h (µM)
Report as a plain number; the unit µM is understood.

Form field concentration at 3 h, entry C[C@H]1[C@@H](O)O[C@@H]2O[C@@]3(C)CC[C@H]4[C@H](C)CC[C@@H]1[C@@]24OO3 [DHA, dihydroartemisinin] : 0.16

----------
Experiment: Plasma pharmacokinetics by HPLC-ECD after IV dose in rhesus monkeys
Details: rhesus monkey, plasma, intravenous, 8 mg kg^-1, Plasma concentration, mean, 6.0 h; healthy rhesus
reported-metric: concentration at 6 h (nM)
Express it in nM; write the number only.

// concentration at 6 h lookup, compound = C[C@H]1[C@@H](O)O[C@@H]2O[C@@]3(C)CC[C@H]4[C@H](C)CC[C@@H]1[C@@]24OO3 [DHA, dihydroartemisinin] , result: 0

----------
Assay: Plasma pharmacokinetics by HPLC-ECD after IV dose in rhesus monkeys
Conditions: rhesus monkey, plasma, iv, 8 mg/kg, AUC(0-inf), mean; infected rhesus
reported-metric: AUC(0-inf)
Lab note: write values as number then unit, every time.

Sample C[C@H]1[C@@H](O)O[C@@H]2O[C@@]3(C)CC[C@H]4[C@H](C)CC[C@@H]1[C@@]24OO3 [DHA, dihydroartemisinin] ; AUC(0-inf) observed: 7.45 µM·h

----------
Test: in vivo
Details: rhesus monkey, iv, 8 mg/kg, Cl
reported-metric: clearance (mL/min/kg)
Quick reminder: number only, in mL/min/kg, skip the unit.

For reference, reported clearance for `C[C@H]1[C@H](OC(=O)CCC(=O)O)O[C@@H]2O[C@@]3(C)CC[C@H]4[C@H](C)CC[C@@H]1[C@@]24OO3` stands at 78.3

----------
Experiment: Plasma pharmacokinetics by HPLC-ECD after IV dose in rhesus monkeys
Settings: rhesus monkey, plasma, iv, 8 mg/kg, t 1/2, z, mean; infected rhesus
reported-metric: half-life (min)
The response must be a number in min with no trailing unit.

// C[C@H]1[C@@H](O)O[C@@H]2O[C@@]3(C)CC[C@H]4[C@H](C)CC[C@@H]1[C@@]24OO3 [DHA, dihydroartemisinin] : half-life value = 30

----------
Assay: in vivo
Conditions: rhesus monkey, iv, 8 mg/kg, Cl, parent
reported-metric: clearance (mL/min/kg)
Kindly provide the numeric value in mL/min/kg only, without the unit symbol.

Short answer for `C[C@H]1[C@H](OC(=O)CCC(=O)O)O[C@@H]2O[C@@]3(C)CC[C@H]4[C@H](C)CC[C@@H]1[C@@]24OO3` : clearance was 72.3

----------
Experiment: in vivo
Conditions: rhesus monkey, iv, 8 mg/kg, AUC 0-20
reported-metric: AUC(0-t) (µM·h)
Supply the numeric figure in µM·h, leaving out any unit text.

Query `C[C@H]1[C@H](OC(=O)CCC(=O)O)O[C@@H]2O[C@@]3(C)CC[C@H]4[C@H](C)CC[C@@H]1[C@@]24OO3` yields AUC(0-t) of 4.78

----------
Assay: Plasma pharmacokinetics by HPLC-ECD after IV dose in rhesus monkeys
Details: rhesus monkey, plasma, iv, 8 mg/kg, t 1/2, z, mean; healthy rhesus
reported-metric: half-life (min)
Field: numeric (min). Do not append units.

For record C[C@H]1[C@@H](O)O[C@@H]2O[C@@]3(C)CC[C@H]4[C@H](C)CC[C@@H]1[C@@]24OO3 [DHA, dihydroartemisinin] the listed half-life is 35.9

----------
Assay: in vivo
Conditions: rhesus monkey, iv, 8 mg/kg, AUC0–20, parent drug
reported-metric: AUC(0-t) (µM·h)
The reply should contain only the number, in µM·h.

Record `C[C@H]1[C@H](OC(=O)CCC(=O)O)O[C@@H]2O[C@@]3(C)CC[C@H]4[C@H](C)CC[C@@H]1[C@@]24OO3` , field AUC(0-t): 4.8

----------
Assay: Plasma pharmacokinetics by HPLC-ECD after IV dose in rhesus monkeys
Conditions: rhesus monkey, plasma, intravenous, 8 mg kg^-1, Plasma concentration, mean, 0.33 h; infected rhesus
reported-metric: concentration at 0.33 h (µM)
Enter your answer as a number in µM; do not include the unit.

Record summary for C[C@H]1[C@@H](O)O[C@@H]2O[C@@]3(C)CC[C@H]4[C@H](C)CC[C@@H]1[C@@]24OO3 [DHA, dihydroartemisinin] : reported concentration at 0.33 h = 5.92

----------
Assay: Plasma pharmacokinetics by HPLC-ECD after IV dose in rhesus monkeys
Settings: rhesus monkey, plasma, intravenous, 8 mg kg^-1, Plasma concentration, mean, 3.0 h; healthy rhesus
reported-metric: concentration at 3 h
Quick note: unit goes after the number.

Form field concentration at 3 h, entry C[C@H]1[C@@H](O)O[C@@H]2O[C@@]3(C)CC[C@H]4[C@H](C)CC[C@@H]1[C@@]24OO3 [DHA, dihydroartemisinin] : 0.31 µM

----------
Assay: in vivo
Conditions: rhesus monkey, iv, 8 mg/kg, AUC0–∞, parent drug
reported-metric: AUC(0-inf) (µM·h)
# output: bare number, implied unit µM·h

Form field AUC(0-inf), entry `C[C@H]1[C@H](OC(=O)CCC(=O)O)O[C@@H]2O[C@@]3(C)CC[C@H]4[C@H](C)CC[C@@H]1[C@@]24OO3` : 4.8

----------
Test: in vivo
Conditions: rhesus monkey, Plasma concentration, mean
reported-metric: concentration at 1 h (nM)
Give a bare numeral; the unit nM is implied.

Query C[C@H]1[C@H](OC(=O)CCC(=O)O)O[C@@H]2O[C@@]3(C)CC[C@H]4[C@H](C)CC[C@@H]1[C@@]24OO3 [IV AS, Artesunic acid] yields concentration at 1 h of 50

----------
Assay: Plasma pharmacokinetics by HPLC-ECD after IV dose in rhesus monkeys
Details: mean; P. coatneyi infected rhesus; IV AL/Lys 11.8 or AS/Na 8 mg/kg; analyte = label
reported-metric: Cmax (µM)
// note: answer is a bare numeric in µM

Lab book: Cmax of CC1CCC2C(C)C(OCc3ccc(C(=O)O)cc3)OC3OC4(C)CCC1C32OO4.CC1CCC2C(C)C(OCc3ccc(C(=O)O)cc3)OC3OC4(C)CCC1C32OO4.O (stereo not shown) noted as 61.5

----------
Experiment: Plasma pharmacokinetics by HPLC-ECD after IV dose in rhesus monkeys
Conditions: rhesus monkey, plasma, intravenous, 8 mg kg^-1, Plasma concentration, mean, 0.67 h; healthy rhesus
reported-metric: concentration at 0.67 h (µM)
Supply the numeric figure in µM, leaving out any unit text.

Notebook: C[C@H]1[C@@H](O)O[C@@H]2O[C@@]3(C)CC[C@H]4[C@H](C)CC[C@@H]1[C@@]24OO3 [DHA, dihydroartemisinin] , concentration at 0.67 h read as 4.51

----------
Assay: Plasma pharmacokinetics by HPLC-ECD after IV dose in rhesus monkeys
Conditions: rhesus monkey, plasma, iv, 8 mg/kg, Cmax, mean; P. coatneyi infected rhesus; IV AL/Lys 11.8 or AS/Na 8 mg/kg; analyte = label
reported-metric: Cmax (µM)
// note: answer is a bare numeric in µM

Cmax reading for C[C@H]1[C@@H](O)O[C@@H]2O[C@@]3(C)CC[C@H]4[C@H](C)CC[C@@H]1[C@@]24OO3 [DHA, dihydroartemisinin] : 6.85
